Measured OD450 nm, listed per entry.
target: T1, His-tagged CD47 recombinant protein, CD47-His (human, UniProt Q08722 19-141, limits assumed); experiment: ELISA on coated CD47-His; Ab 0 nM (background)
T1 construct: it is not restated for CD47-His; also called human CD47-His protein; antigen CD47-His; not shown: His tag

binder	OD450 nm
20H4G5 (antibody, V domains shown, Murine hybridoma antibody purified on protein G) VH: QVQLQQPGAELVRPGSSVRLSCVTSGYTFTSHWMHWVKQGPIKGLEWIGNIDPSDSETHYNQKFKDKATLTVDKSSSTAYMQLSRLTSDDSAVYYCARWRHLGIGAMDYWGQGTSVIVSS VL: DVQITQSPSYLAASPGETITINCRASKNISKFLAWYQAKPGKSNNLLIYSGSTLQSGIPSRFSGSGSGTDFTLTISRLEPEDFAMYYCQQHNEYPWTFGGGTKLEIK	0.05
95E2D10 (antibody, V domains shown, Murine hybridoma antibody purified on protein G) VH: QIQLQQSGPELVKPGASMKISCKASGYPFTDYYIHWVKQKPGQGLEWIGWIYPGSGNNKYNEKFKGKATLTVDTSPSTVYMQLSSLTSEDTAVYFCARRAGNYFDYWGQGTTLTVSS VL: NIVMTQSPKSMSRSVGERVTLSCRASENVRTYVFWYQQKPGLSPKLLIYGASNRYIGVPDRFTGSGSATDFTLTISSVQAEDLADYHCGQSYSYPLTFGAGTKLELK	0.05
4D10B11 (antibody, V domains shown, Murine hybridoma antibody purified on protein G) VH: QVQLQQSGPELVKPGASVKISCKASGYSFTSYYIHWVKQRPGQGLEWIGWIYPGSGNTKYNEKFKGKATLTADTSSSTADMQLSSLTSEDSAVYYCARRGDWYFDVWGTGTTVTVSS VL: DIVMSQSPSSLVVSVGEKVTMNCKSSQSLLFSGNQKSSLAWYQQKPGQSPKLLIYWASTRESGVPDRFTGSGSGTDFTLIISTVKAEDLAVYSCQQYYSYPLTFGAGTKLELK	0.05

// data source = patent US20220017615A1
